tested on: Primary human fibroblasts derived from IPF patients (LL29 cells); assay: Inhibition of the fibrotic process: αSMA staining in TGF-β1-treated LL29 fibroblasts; assay type: cell-based; settings: Fibroblast, 96 h, LL29 cells, TGF-β1 20 ng/mL, 4 days, % αSMA-positive cells
Please note: EC50 exactly at 1000 nM is Not met. Only values below 1000 nM get Met.

Previously resolved entries follow.
- Cn1cc(-c2ccc3[nH]nc(-c4cc5c(-c6cccnc6)cncc5[nH]4)c3c2)cn1: Not met
- FC1(F)CCN(Cc2cncc(-c3ccc4[nH]nc(-c5cc6c(-c7cccnc7)cncc6[nH]5)c4c3)c2)C1: Met
- Fc1ccccc1-c1cncc2[nH]c(-c3n[nH]c4ccc(-c5ccccn5)cc34)cc12: Not met
- CN(C)Cc1cncc(-c2ccc3[nH]nc(-c4cc5c(-c6cccc(F)c6)cncc5[nH]4)c3c2)c1: Met

Q. In the record for c1cc(-c2cncc3[nH]c(-c4n[nH]c5ccc(-c6cncc(CN7CCCC7)c6)cc45)cc23)ccn1 , is EC50 less than 1000 nM?
A. Not met

Q. In the record for CCCCC(=O)Nc1cncc(-c2ccc3[nH]nc(-c4cc5c(-c6ccoc6)cncc5[nH]4)c3c2)c1 , is EC50 less than 1000 nM?
A. Not met

Q. In the record for CN(C)c1cncc(-c2ccc3[nH]nc(-c4cc5c(-c6ccoc6)cncc5[nH]4)c3c2)c1 , is EC50 less than 1000 nM?
A. Not met

---

Items are presented alongside their recorded EC50.
system: SW480 colon cancer cells; assay: Cell viability assay (CellTiter-Blue) in SW480 colon cancer cells; assay type: cell-based; settings: Homo sapiens, 96 h; SW480 cell viability, four days incubation

• O=C(Nc1cncc(-c2ccc3[nH]nc(-c4cc5c(-c6cccc(F)c6)cncc5[nH]4)c3c2)c1)C1CCCCC1 [Compound 23] = 513 nM
• c1cc(-c2ccc3[nH]nc(-c4cc5c(-c6ccsc6)cncc5[nH]4)c3c2)ccn1 [Compound 298] = 1360 nM
• c1ncc(-c2ccc3[nH]nc(-c4cc5c(N6CCCCC6)cncc5[nH]4)c3c2)cc1CN1CCCC1 [Compound 182] = 4340 nM

Now, please, on to the next compound.
Q. Recall and state the measured EC50 for O=C(Nc1cncc(-c2ccc3[nH]nc(-c4cc5c(-c6cccnc6)cncc5[nH]4)c3c2)c1)c1ccccc1 [Compound 95] .
A. > 10000 nM

---

test system: SW480 colon cancer cells; experiment: Cell viability assay (CellTiter-Blue) in SW480 colon cancer cells; format: cell-based; settings: Homo sapiens, 96 h; SW480 cell viability, four days incubation
pEC50: −log10 of the molar value.
Please note: pEC50 exactly at 6 is NOT MET. Only values below 6 get MET.

Previously resolved entries follow.
- CC(C)Nc1cncc(-c2ccc3[nH]nc(-c4cc5c(-c6cc(F)cc(CNS(C)(=O)=O)c6)cncc5[nH]4)c3c2)c1 [Compound 488]: MET
- c1ncc(-c2ccc3[nH]nc(-c4cc5c(N6CCCCC6)cncc5[nH]4)c3c2)cc1OC1CCCCC1 [Compound 607]: MET
- CS(=O)(=O)NCc1cc(F)cc(-c2cncc3[nH]c(-c4n[nH]c5ccc(-c6cncc(NC(=O)Cc7ccccc7)c6)cc45)cc23)c1 [Compound 486]: MET

Consider the additional compound presented here.
Q. In the record for CCC(=O)Nc1cncc(-c2ccc3[nH]nc(-c4cc5c(-c6cccc(F)c6)cncc5[nH]4)c3c2)c1 [Compound 1] , is pEC50 less than 6?
A. NOT MET

---

tested on: Wnt activity (Sp5-Luc reporter, SW480 colon carcinoma cells); assay: Screening assay for Wnt activity: Sp5-Luc reporter gene assay in SW480 cells; assay type: cell-based; conditions: Homo sapiens; SW480 Sp5-Luc reporter, overnight incubation
Items are presented alongside their recorded pEC50.
pEC50 here is simply -log10 of the concentration when that concentration is written in mol/L.

Q. Recall and state the measured pEC50 for CN(C)c1cncc(-c2ccc3[nH]nc(-c4cc5c(-c6ccoc6)cncc5[nH]4)c3c2)c1 [Compound 315] .
A. 5.84

---

Items are presented alongside their recorded pEC50.
tested on: Wnt activity (Sp5-Luc reporter, SW480 colon carcinoma cells); test: Screening assay for Wnt activity: Sp5-Luc reporter gene assay in SW480 cells; assay type: cell-based; conditions: Homo sapiens; SW480 Sp5-Luc reporter, overnight incubation
pEC50 here is simply -log10 of the concentration when that concentration is written in mol/L.

Take a look at these entries with their results.
• c1ccc(-c2ccc3[nH]nc(-c4cc5c(-c6ccncc6)cncc5[nH]4)c3c2)nc1 = 5.89
• CN(C)Cc1cncc(-c2ccc3[nH]nc(-c4cc5c(-c6cccc(F)c6)cncc5[nH]4)c3c2)c1 = 5.89
• c1cc(-c2cncc3[nH]c(-c4n[nH]c5ccc(-c6cncc(CN7CCCC7)c6)cc45)cc23)ccn1 = 5.47
• Fc1ccccc1-c1cncc2[nH]c(-c3n[nH]c4ccc(-c5cncc(OC6CCNCC6)c5)cc34)cc12 = 5.74
• c1ncc(-c2ccc3[nH]nc(-c4cc5c(N6CCCCC6)cncc5[nH]4)c3c2)cn1 = 5.76

Now, please, on to the next compound.
Q. Recall and state the measured pEC50 for CC(C)CC(=O)Nc1cncc(-c2ccc3[nH]nc(-c4cc5c(N6CCCCC6)cncc5[nH]4)c3c2)c1 .
A. 6.42

---

test system: SW480 colon cancer cells; assay: Cell viability assay (CellTiter-Blue) in SW480 colon cancer cells; format: cell-based; conditions: Homo sapiens, 96 h; SW480 cell viability, four days incubation
recorded endpoint: EC50 (nM)
Write the number in nM without appending the unit.

Take a look at these entries with their results.
• c1cc2cc(-c3n[nH]c4ccc(-c5cncc(OCCN6CCCC6)c5)cc34)[nH]c2cn1 = 3150
• CCC(=O)Nc1cncc(-c2ccc3[nH]nc(-c4cc5c(-c6cc(F)cc(CNS(C)(=O)=O)c6)cncc5[nH]4)c3c2)c1 = 901
• Cc1ccncc1-c1ccc2[nH]nc(-c3cc4ccncc4[nH]3)c2c1 = 109
• CN(C)Cc1cncc(-c2ccc3[nH]nc(-c4cc5c(-c6ccncc6)cncc5[nH]4)c3c2)c1 = 2170
• c1cc(-c2cncc3[nH]c(-c4n[nH]c5ccc(-c6cncc(CN7CCCCC7)c6)cc45)cc23)co1 = 570

Q. Recall and state the measured EC50 for CCCCC(=O)Nc1cncc(-c2ccc3[nH]nc(-c4cc5c(-c6ccoc6)cncc5[nH]4)c3c2)c1 .
A. 298

Q. Recall and state the measured EC50 for CCCC(=O)Nc1cncc(-c2ccc3[nH]nc(-c4cc5c(-c6ccc(F)cc6)cncc5[nH]4)c3c2)c1 .
A. 1010

Q. Recall and state the measured EC50 for CCCCC(=O)Nc1cncc(-c2ccc3[nH]nc(-c4cc5c(-c6ccccc6F)cncc5[nH]4)c3c2)c1 .
A. 1180

Q. Recall and state the measured EC50 for Fc1ccc(-c2cncc3[nH]c(-c4n[nH]c5ccc(C6=CCNCC6)cc45)cc23)cc1 .
A. 1670

Q. Recall and state the measured EC50 for CC(C)CC(=O)Nc1cncc(-c2ccc3[nH]nc(-c4cc5c(N6CCCCC6)cncc5[nH]4)c3c2)c1 .
A. 279

Q. Recall and state the measured EC50 for Fc1cccc(-c2cncc3[nH]c(-c4n[nH]c5ccc(C6CCNCC6)cc45)cc23)c1 .
A. 4150

Q. Recall and state the measured EC50 for CC(C)C(=O)Nc1cncc(-c2ccc3[nH]nc(-c4cc5c(-c6cccnc6)cncc5[nH]4)c3c2)c1 .
A. 584

Q. Recall and state the measured EC50 for Fc1ccccc1-c1cncc2[nH]c(-c3n[nH]c4ccc(-c5ccccn5)cc34)cc12 .
A. 2160

---

Items are presented alongside their recorded EC50.
tested on: Wnt activity (Sp5-Luc reporter, SW480 colon carcinoma cells); test: Screening assay for Wnt activity: Sp5-Luc reporter gene assay in SW480 cells; assay type: cell-based; details: Homo sapiens; SW480 Sp5-Luc reporter, overnight incubation
Write the number in nM without appending the unit.

Take a look at these entries with their results.
- Fc1cccc(-c2cncc3[nH]c(-c4n[nH]c5ccc(-c6cccnc6)cc45)cc23)c1 [Compound 4]: 395
- CCC(=O)Nc1cncc(-c2ccc3[nH]nc(-c4cc5c(-c6cccc(F)c6)cncc5[nH]4)c3c2)c1 [Compound 1]: 45
- Nc1cncc(-c2ccc3[nH]nc(-c4cc5c(-c6ccccc6F)cncc5[nH]4)c3c2)c1 [Compound 59]: 875
- CN(C)Cc1cncc(-c2cc(F)c3[nH]nc(-c4cc5c(-c6cccc(F)c6)cncc5[nH]4)c3c2)c1 [Compound 991]: 3710
- CS(=O)(=O)NCc1cc(F)cc(-c2cncc3[nH]c(-c4n[nH]c5ccc(-c6cncc(NC(=O)Cc7ccccc7)c6)cc45)cc23)c1 [Compound 486]: 3480
- c1cc(-c2cncc3[nH]c(-c4n[nH]c5ccc(-c6cncc(CN7CCCCC7)c6)cc45)cc23)co1 [Compound 323]: 418
- CN(C)Cc1cncc(-c2ccc3[nH]nc(-c4cc5c(-c6ccncc6)cncc5[nH]4)c3c2)c1 [Compound 125]: 1060
- COc1cncc(-c2ccc3[nH]nc(-c4cc5c(-c6ccoc6)cncc5[nH]4)c3c2)c1 [Compound 692]: 2200
- Fc1cccc(-c2cncc3[nH]c(-c4n[nH]c5ccc(-c6ccncc6)cc45)cc23)c1 [Compound 18]: 2110
- CC(C)Nc1cncc(-c2ccc3[nH]nc(-c4cc5c(-c6cc(F)cc(CNS(C)(=O)=O)c6)cncc5[nH]4)c3c2)c1 [Compound 488]: 759

Q. Recall and state the measured EC50 for O=C(Nc1cncc(-c2ccc3[nH]nc(-c4cc5c(-c6cccc(F)c6)cncc5[nH]4)c3c2)c1)C1CC1 [Compound 20] .
A. 45

Q. Recall and state the measured EC50 for CC(C)C(=O)Nc1cncc(-c2ccc3[nH]nc(-c4cc5c(-c6cccnc6)cncc5[nH]4)c3c2)c1 [Compound 93] .
A. 260
